tested on: Hepatitis B virus; assay: Antiviral activity against HBV infected in human Primary hepatocyte cells assessed as reduction in pgRNA level; type: functional, organism-based
property name: EC50 (nM)
The figure you give is taken to be in nM; do not add the unit.

In: Give a short answer stating reported EC50 for O=C(NCc1cnc(C(F)(F)F)s1)c1ccc2c(c1)NC(=O)c1ccccc1S2(=O)=O .
Out: 1840

====

tested on: Hepatitis B virus; experiment: Antiviral activity against HBV infected in human HePAD38 cells assessed as reduction in cccDNA level; format: functional, organism-based
property name: pEC50
A value of pEC50 is the negative decimal logarithm of a concentration given in moles per litre.

In: Answer with reported pEC50 of Cc1c(C(=O)C(=O)NCC#N)c(C)n(C)c1C(=O)Nc1ccc(F)c(F)c1
Out: 8.52

====

tested on: Hepatitis B virus; assay: Antiviral activity against HBV infected in human HepG2.2.15 cells assessed as reduction in HBsAg measured after 7 day by enzyme immunoassay relative to control; assay type: functional, organism-based; details: HepG2.2.15, 168 h
The following compounds are shown together with reported EC50 values.
Express the result in µM but write the number alone.

>>> obs_value("O=C(/C=C/c1ccc(O)c(O)c1)O[C@@H]1C[C@](O)(C(=O)O)C[C@@H](OC(=O)/C=C/c2ccc(O)c(O)c2)[C@H]1O")
90.5

Attention now shifts to the item below.
In: Read the entry O=C(/C=C/c1ccc(O)c(O)c1)O[C@@H]1[C@H](O)C[C@@](O)(C(=O)O)C[C@H]1OC(=O)/C=C/c1ccc(O)c(O)c1 and write its reported EC50.
Out: 31.9

====

experiment: Modulation of capsid assembly in HBV genotype F assessed as inhibition of viral replication; type: functional, Hepatitis B virus
property name: EC50 (nM)
Kindly provide the numeric value in nM only, without the unit symbol.

In: Specify EC50 for C[C@H](NS(=O)(=O)c1cc(C(=O)Nc2ccc(F)c(C#N)c2)n(C)c1)C(F)(F)F [BERSACAPAVIR] and stop.
Out: 10

Reference source for all entries: ChEMBL document CHEMBL5346891
